Documented intrinsic clearance across a set of compounds
method: Intrinsic clearance in human liver microsomes assessed per mg protein at 1 uM preincubated for 5 to 10 mins followed by NADPH-regenerating system addition and measured after 2 to 60 mins by LC-MS/MS analysis
Type: ADME, Microsome
setupConditions: time 2-60 min

- compoundStructureString: "NC(=O)Cn1c2c(c3ccccc31)CN(S(=O)(=O)c1ccc(F)cc1)CC2"
  intrinsic clearance: "75 µL/min"
- compoundStructureString: "O=C(O)c1ccc(S(=O)(=O)N2CCc3[nH]c4ccccc4c3C2)cc1"
  intrinsic clearance: "11 µL/min"
- compoundStructureString: "O=S(=O)(c1cccnc1)N1CCc2[nH]c3ccccc3c2C1"
  intrinsic clearance: "117 µL/min"

Would you mind telling me what intrinsic clearance value was observed for O=S(=O)(c1ccc(F)cc1)N1CCc2[nH]c3ccccc3c2C1 ?
120 µL/min

Would you mind telling me what intrinsic clearance value was observed for O=S(=O)(c1cnc[nH]1)N1CCc2[nH]c3ccccc3c2C1 ?
< 7 µL/min

Would you mind telling me what intrinsic clearance value was observed for O=C(Nc1ccc(F)cc1)N1CCc2[nH]c3ccccc3c2C1 ?
82 µL/min

FYI, the data here is from ChEMBL document CHEMBL5131440.
